Assay: NCI Yeast Anticancer Drug Screen. Data for the rad50 strain (AID 155);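 further: 0% = growth of vehicle-only cultures of the same strain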
Details: S. cerevisiae rad50 strain growth inhibition; at 50.0 µM (retest, dose inferred, filed as 5.0)
Description: Growth inhibition of yeast strains with defined genetic alterations is measured as a screen for potential anti-cancer activity. Selected strains with alterations in DNA damage repair or cell cycle control were exposed to compounds and growth inhibition was measured relative to vehicle treated controls. The strain used in this assay is rad50
The panel holds about 79,000 compounds, 15% with a hit somewhere; the sample as a whole holds those more often. Activity calls are given as the source filed them. No stated cut-off is given here; in the data, active means growth inhibition above about 70%; inactive means the rest.
Labels: True for active, False for inactive

1. CCCCCCCCCCCCCCCCCCSSCCCCCCCCCCCCCCCCCC = False
2. O=C(CC(c1ccccc1)c1ccccc1)NCCCCN1CCCCCCC1 = True
3. O=[N+]([O-])c1ccccc1SCc1ccccc1 = False
4. O=C(n1c2ccccc2c2n[nH]c(=S)nc21)C(F)(F)F = False
5. Cc1cccc(N=Nc2ccc(O)cc2)c1 = True
6. O=C(Nc1ccc(Br)cc1)c1cc(Br)c(O)c(Br)c1O = True
7. CCC1=C(c2ccc(OC(C)=O)cc2)Cc2cc(OC(C)=O)ccc21 = False
8. CN(O)C(=S)c1ccccc1 = True
9. CC(=O)c1c(O)c(C)c(O)c2c1OC1=CC(=O)c3c(C)noc3C12C (configuration not stated) = False
10. CSc1c(C)n([O-])c2cc(Cl)c(Cl)cc2[n+]1=O = True
11. CCOC(=O)C1=C(c2ccccc2)N(C)c2ccccc2S1 = False
12. C[n+]1c(/C=C\c2ccccc2)sc2ccccc21 = True

* * *

test: NCI Yeast Anticancer Drug Screen. Data for the mec2-1 strain (AID 157); conditions: S. cerevisiae mec2-1 strain, at 50.0 µM (retest, dose inferred, filed as 5.0)
The panel holds about 79,000 compounds, 15% with a hit somewhere; the sample as a whole holds those more often. Active and inactive are the calls of the source. No stated cut-off is given here; in the data, active means growth inhibition above about 70%; inactive means the rest.
Outcomes: T (active), F (inactive)

1. CN(C)c1nc(Cl)nc2c1ncn2C1OCC(O)C(O)C1O (configuration not stated) = F
2. COc1ccc2c(c1)CCCN2CCCCCCCCCCN1CCCCC1 = F
3. Nc1ccc(O)c2c1C(=O)c1ccccc1C2O (configuration not stated) = T
4. Oc1cccc2c(Br)ccnc12 = T
5. COc1ccc(C2c3cc4c(cc3OC(O)(CO)C2C(=O)O)OCO4)cc1 (configuration not stated) (tested in a mixture with another compound) = T
6. Cc1ccc(/C=N/NS(=O)(=O)c2ccccc2)c(C)c1 = F
7. O=C(Nc1ccc(C2=NCCN2)cc1)c1cc(C(=O)Nc2ccc(C3=NCCN3)cc2)cc(C(=O)Nc2ccc(C3=NCCN3)cc2)c1 = T
8. N#CC1CCCC(Cc2ccccc2)(c2ccccc2)C1=O (configuration not stated) = T
9. CCOC(=O)N1CCN(CCCCCCOc2ccc(C(C)(C)C)cc2)CC1 = T
10. CCOC(=O)c1ccc(O)c(OC)c1 = F
11. Cc1cc2ccccc2c[n+]1Cc1ccc2ccccc2n1 = F
12. CN(C)C(=S)/N=c1\sn(C)/c(=N\C(=S)N(C)C)n1C = F

* * *

assay: NCI Yeast Anticancer Drug Screen. Data for the mlh1 rad18 strain (AID 175); details: S. cerevisiae mlh1 rad18 strain growth inhibition; at 50.0 µM (retest, dose inferred, filed as 5.0); stronger effect = higher value
This is part of a sample that, as a whole, favours compounds with a hit. Of some 79,000 tested, about 15% had one in any assay.
growth inhibition for assorted compounds
parameter: growth inhibition (%)

1. Cc1cc(N)c2cc(OCCOc3ccc4nc(C)cc(N)c4c3)ccc2n1 = 94
2. Cc1ccc(Cc2n[nH]c(=O)n2N2C(=O)c3ccccc3C2=O)cc1 = 12
3. CCC[n+]1ccc(/C=N\NC(N)=S)c2ccccc21 = 33
4. O=C(Nc1ccccc1)OCCN=c1c2ccccc2ccc2ccccc12 = 92
5. C/C(=N/NC(N)=S)C(CN(C)C)C(C1=C(O)c2ccccc2OC1)c1ccccc1 (stereo unspecified) = 0
6. O=C(/C=C/c1cccc2ccccc12)c1cccc([N+](=O)[O-])c1 = -51
7. S=C(Nc1cc(Cl)cc(Cl)c1)SCc1ccccc1 = 82
8. OC(CN1CCC(c2ccccc2)CC1)c1ccc(Br)cc1 (stereo unspecified) = 91
9. ClCC1CSC2(CCCCC2)O1 (stereo unspecified) = -23
10. Fc1cccc(NC(=S)SCc2ccc(Cl)cc2)c1 = 99
11. CC([C@H]1CCC2C3CCC4CC5(CC[C@]4(C)C3CC[C@@]21C)c1ccccc1C(=O)N5C)N(C)C (stereo partly specified) = 84
